Tested on: RXF 393 renal
Assay: NCI tumour cell line growth inhibition, 48 h
reported.property: GI50

Known results for compounds:
> print(dat)
                                   compound  reported.property    result
1  CCOC(=O)[C@H]1O[C@@H]1C(=O)N[C@@H](CC(C)C)C(=O)NCCc1ccc(O)cc1               GI50  > 100 µM
2  Nc1nc2c(c3ncccc13)C(c1cccc(Br)c1)Cc1ncccc1-2 (centres undefined)               GI50  0.765 µM
3  FC(F)(F)c1nnn[n-]1.[Au+].c1ccc([PH+](c2ccccc2)c2ccccc2)cc1               GI50   1.52 µM

# GI50 (compound: "O=c1c2ccc3cccc4c(=O)c5ccc6cccc1c6c5-c2c34" ) is > 50 µM

----------
Test system: MALME-3M melanoma
Test: NCI tumour cell line growth inhibition, 48 h
reported.property: TGI (µM)
Numeric answer only, unit µM assumed.

> print(dat)
                                   compound    measured.target  result
1  COc1cccc(/C=C2\CCC(CCN(C)C)(C3=CCCC3)C2=O)c1 (stereo unspecified)  MALME-3M melanoma    31.2
2  CC(C)[C@]12O[C@H]1[C@@H]1O[C@@]13[C@@]1(C)CCC4=C(COC4=O)[C@@H]1C[C@@H]1O[C@@]13C2=O  MALME-3M melanoma  0.0541
3  COc1cc2ncn(-c3cc(O[C@H](C)c4ccccc4Cl)c(C(N)=O)s3)c2cc1OC  MALME-3M melanoma    12.3
4  C/C1=C\[C@H](C)C[C@H](C)OC(=O)C[C@H](c2ccc(O)cc2)NC(=O)[C@H](Cc2ccc(O)c(I)c2)N(C)C(=O)[C@H](C)NC(=O)[C@@H](C)C1  MALME-3M melanoma    3.06
5  CCN(CC)Cc1cc(Nc2c3ccccc3nc3c4ccccc4n(C)c23)cc(CN(CC)CC)c1O  MALME-3M melanoma    5.25
6  Clc1ccc(CSc2ncnc3c2ncn3C2CCCCO2)cc1 (stereo unspecified)  MALME-3M melanoma    38.4
7     O=C(Oc1ccc(S(=O)(=O)F)cc1F)c1ccccc1Cl  MALME-3M melanoma    86.4

Here is another compound to look at.
# TGI (compound: [C-]#[N+][C@@H]1C2[C@H](CC[C@@]1(C)O)C(=C)CC[C@@H]2[C@@]1(C)CC[C@H](Cl)C(C)(C)O1 (stereo partly specified) ) is 48.1

----------
Test system: LOX IMVI melanoma
Experiment: NCI tumour cell line growth inhibition, 48 h
reported.property: TGI (µM)
Numeric answer only, unit µM assumed.

> print(dat)
                                   compound  reported.property  result
1  CCOP(=O)(O)C(Nc1ccc(N=Nc2ccccc2)cc1)c1ccc(C(Nc2ccc(N=Nc3ccccc3)cc2)P(=O)(O)OCC)cc1 (stereo not drawn)                TGI    29.6

# TGI (compound: "Cc1ccc2nc(-c3ccc(N)c(Br)c3)sc2c1" ) is 30.4

----------
Test system: EKVX NSCLC
Test: NCI tumour cell line growth inhibition, 48 h
reported.property: TGI

> print(dat)
                                   compound  measured.target    result
1  COC(=O)[C@H](NC(=O)OC(C)(C)C)[C@H]1COC(C)(C)O1       EKVX NSCLC  > 100 µM
2  Fc1cnc(NC2CC2)nc1-c1cnc2ccc(N3CCOCC3)cn12       EKVX NSCLC   3.46 µM
3   C/C(=N\O)c1ccc(Nc2nc3ccccc3c3occc23)cc1       EKVX NSCLC  > 100 µM

# TGI (compound: "CN(C)N=Nc1ccccc1" ) is > 100 µM

# TGI (compound: "O=c1cc(-c2ccccc2)oc2cc(Oc3nnnn3-c3ccccc3)ccc12" ) is > 100 µM

# TGI (compound: CCC(C)CN1C(=O)NC(Cc2ccccc2)C1=O (stereo unspecified) ) is > 100 µM

----------
System: SF-539 CNS
Assay: NCI tumour cell line growth inhibition, 48 h
reported.property: TGI (µM)
Numeric answer only, unit µM assumed.

> print(dat)
                                   compound  unit.abbreviation  result
1  COc1ccc2[nH]c(-c3ccccc3)c(/C=C(\C#N)S(=O)(=O)c3ccccc3)c2c1                 µM    34.7
2  CN1CCN([C@H]2C[C@H]3[C@@H]4CC=C5C[C@@H](N6CCCC6)CC[C@]5(C)[C@H]4CC[C@]3(C)[C@H]2O)CC1                 µM    30.6

# TGI (compound: Cc1ccc([N+](=O)[O-])cc1S(=O)(=O)Nc1ccc(C2=NN(C(=O)c3ccccc3)C(c3ccccc3)C2)cc1 (stereo not given) ) is 55.2

----------
In this section, each of the molecules is paired with its reported TGI.
Test system: MCF7 breast
Test: NCI tumour cell line growth inhibition, 48 h

molecule	reported.property	result
CCOC(=O)C1(O)C(=O)C2=C3C(=O)OC(C4OC(=O)c5c(c(O)c(O)c(O)c5C31)-c1c(cc(O)c(O)c1O)C(=O)OC1COC(=O)c3cc(O)c(O)c(O)c3-c3c(cc(O)c(O)c3O)C(=O)OC14)[C@@H]2O (some centres undefined)	TGI	40.1 µM
CNC(=S)Nc1sc2c(c1C#N)CCCC2	TGI	> 75 µM
O=C1/C(=C/c2cc3c(=O)c4ccccc4sc3s2)NC(=S)N1c1ccccc1	TGI	> 100 µM
Nc1nc(/C=C\c2ccc([N+](=O)[O-])cc2)nc(N2CCN(c3ccccc3)CC2)n1	TGI	> 100 µM
O=C1Nc2ccccc2C1=Nc1ccc(S(=O)(=O)Nc2nccs2)cc1	TGI	> 100 µM
Nc1nc2c(c3ncccc13)C(c1cccc(Br)c1)Cc1ncccc1-2 (centres undefined)	TGI	18.1 µM
COc1nc(N)c(C#N)c(C#N)c1C#N	TGI	> 10 µM
O=C(O)CNC(=O)C(CS)Cc1ccccc1 (centres undefined)	TGI	> 25 µM

Here is another molecule to look at.
# TGI (molecule: "CC(C)(CN1CCCCC1)C(/C=C/c1ccc(Cl)c(Cl)c1)=N\NC(=O)N/N=C(/C=C/c1ccc(Cl)c(Cl)c1)C(C)(C)CN1CCCCC1" ) is 3.09 µM

----------
In this section, each of the molecules is paired with its reported TGI.
Test system: OVCAR-3 ovarian
Test: NCI tumour cell line growth inhibition, 48 h

> print(dat)
                                   molecule  reported.property    result
1                          CN(C)N=Nc1ccccc1                TGI  > 100 µM
2            O=C(O)c1cc(C(=O)O)nc(C(=O)O)c1                TGI  > 100 µM
3  CCOC(=O)C1=C(NC(C)(C)C)OC/C1=N\NC(=O)Cc1ccccc1                TGI  > 100 µM

Here is another molecule to look at.
# TGI (molecule: C=C1C(O)C23CCC4C(C(=O)O)(C(=O)O)CC(OC5OC(CO)C(O)C(OC(=O)CCc6ccccc6)C5NC(=O)CC(C)C)CC4(C)C2CCC1(O)C3 (centres undefined) ) is > 100 µM

----------
In this section, each of the compounds is paired with its reported TGI.
System: TK-10 renal
Assay: NCI tumour cell line growth inhibition, 48 h

compound	measured.target	result
CCOC(=O)C1(C)CCc2sc(N)c(C#N)c21 (stereo not given)	TK-10 renal	> 100 µM

# TGI (compound: O=C1C2c3[nH]c4ccccc4c3C3CCCC3C2C(=O)N1c1ccccc1 (stereo not given) ) is > 100 µM

# TGI (compound: "O=C1c2ccccc2-c2nnc(-c3ccc(Br)cc3)cc21" ) is > 100 µM

# TGI (compound: O=C1/C(=C\c2ccccc2)C2/C(=C\c3ccccc3)C(=O)/C(=C\c3ccccc3)C2/C1=C\c1ccccc1 (stereo not given) ) is 19.5 µM

# TGI (compound: "O=C1Nc2ccccc2C1=Nc1ccc(S(=O)(=O)Nc2nccs2)cc1" ) is > 100 µM

# TGI (compound: CC(C)(C)OC(=O)C1C(=O)NC(=O)CC1CC(OCc1ccccc1)C(COCc1ccccc1)OCc1ccccc1 (stereo not given) ) is > 100 µM

# TGI (compound: O=C1C2C(C(=O)N1c1ccccc1)C1(Br)c3ccccc3C2(Br)C2C(=O)N(c3ccccc3)C(=O)C21 (stereo not given) ) is > 31.6 µM

# TGI (compound: "O=P(O)(NCCCl)NCCCl" ) is > 100 µM

# TGI (compound: "CC(C)[C@]12O[C@H]1[C@@H]1O[C@@]13[C@@]1(C)CCC4=C(COC4=O)[C@@H]1C[C@@H]1O[C@@]13C2=O" ) is > 100 µM

# TGI (compound: "CCOC(=O)N1C/C(=C/c2ccc(F)cc2)C(=O)/C(=C/c2ccc(F)cc2)C1" ) is 6.99 µM
